Target: T1, Ax1 protein, extracellular domain (human, UniProt P30530 26-451)
T1 construct: extracellular domain; also called Axl; Ark
T1 sequence (looked up): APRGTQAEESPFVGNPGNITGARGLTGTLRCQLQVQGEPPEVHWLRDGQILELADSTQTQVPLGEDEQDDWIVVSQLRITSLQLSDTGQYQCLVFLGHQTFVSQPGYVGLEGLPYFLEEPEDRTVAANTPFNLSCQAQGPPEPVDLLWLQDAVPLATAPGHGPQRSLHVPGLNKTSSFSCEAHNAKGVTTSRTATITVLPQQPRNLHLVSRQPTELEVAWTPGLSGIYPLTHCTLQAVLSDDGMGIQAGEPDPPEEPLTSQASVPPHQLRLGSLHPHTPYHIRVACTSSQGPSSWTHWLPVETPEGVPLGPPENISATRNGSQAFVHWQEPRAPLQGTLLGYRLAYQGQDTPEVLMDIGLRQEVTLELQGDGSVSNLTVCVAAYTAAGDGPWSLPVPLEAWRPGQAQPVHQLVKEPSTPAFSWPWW
Assay: ELISA, mutant diluted 1:9
valueType: Affinity ELISA CPE mutant ratio (1:9, pH 6.0/7.4)
Answer with the value's number alone.

Consider the binder LC-F092G (antibody, V domains shown, CPE single point mutant) VH: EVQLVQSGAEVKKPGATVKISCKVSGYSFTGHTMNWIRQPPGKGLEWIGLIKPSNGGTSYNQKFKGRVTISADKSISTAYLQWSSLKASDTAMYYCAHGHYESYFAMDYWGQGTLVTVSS VL: DIQMTQSPSSLSASVGDRVTITCKASQDVSSAVAWYQQKPGQAPRLLIYWASTRHTGVPSRFSGSGSGTEFTLTISSLQPDDFATYYCQEHGSTPLTFGQGTKVEIK and give its measured Affinity ELISA CPE mutant ratio (1:9, pH 6.0/7.4).
4.76

Consider the binder LC-P095K (antibody, V domains shown, CPE single point mutant) VH: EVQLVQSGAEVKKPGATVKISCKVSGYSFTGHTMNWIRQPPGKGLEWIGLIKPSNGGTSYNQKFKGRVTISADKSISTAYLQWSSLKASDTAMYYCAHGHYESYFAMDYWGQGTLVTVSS VL: DIQMTQSPSSLSASVGDRVTITCKASQDVSSAVAWYQQKPGQAPRLLIYWASTRHTGVPSRFSGSGSGTEFTLTISSLQPDDFATYYCQEHFSTKLTFGQGTKVEIK and give its measured Affinity ELISA CPE mutant ratio (1:9, pH 6.0/7.4).
3.47

Consider the binder HC-H100D (antibody, V domains shown, CPE single point mutant) VH: EVQLVQSGAEVKKPGATVKISCKVSGYSFTGHTMNWIRQPPGKGLEWIGLIKPSNGGTSYNQKFKGRVTISADKSISTAYLQWSSLKASDTAMYYCAHGDYESYFAMDYWGQGTLVTVSS VL: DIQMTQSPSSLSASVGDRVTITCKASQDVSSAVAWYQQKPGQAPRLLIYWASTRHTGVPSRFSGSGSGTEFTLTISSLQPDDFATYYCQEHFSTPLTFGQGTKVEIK and give its measured Affinity ELISA CPE mutant ratio (1:9, pH 6.0/7.4).
3.09

Next:
Consider the binder LC-P095W (antibody, V domains shown, CPE single point mutant) VH: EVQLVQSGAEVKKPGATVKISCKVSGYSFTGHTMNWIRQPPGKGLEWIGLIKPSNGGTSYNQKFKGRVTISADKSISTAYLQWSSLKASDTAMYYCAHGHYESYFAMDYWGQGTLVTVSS VL: DIQMTQSPSSLSASVGDRVTITCKASQDVSSAVAWYQQKPGQAPRLLIYWASTRHTGVPSRFSGSGSGTEFTLTISSLQPDDFATYYCQEHFSTWLTFGQGTKVEIK and give its measured Affinity ELISA CPE mutant ratio (1:9, pH 6.0/7.4).
2.26

Consider the binder HC-E102Y (antibody, V domains shown, CPE single point mutant) VH: EVQLVQSGAEVKKPGATVKISCKVSGYSFTGHTMNWIRQPPGKGLEWIGLIKPSNGGTSYNQKFKGRVTISADKSISTAYLQWSSLKASDTAMYYCAHGHYYSYFAMDYWGQGTLVTVSS VL: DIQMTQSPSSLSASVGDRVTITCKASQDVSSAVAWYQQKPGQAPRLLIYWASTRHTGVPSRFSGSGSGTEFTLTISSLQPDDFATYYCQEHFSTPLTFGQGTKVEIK and give its measured Affinity ELISA CPE mutant ratio (1:9, pH 6.0/7.4).
1.99
